# measured target: recombinant human GITR (Cat No. 13643-H08H, Lot No. LC12JA2509, Sino Biological) (human) (UniProt Q9Y5U5)
# test method notes: SPR Biacore 8K, multi-cycle kinetics, purified IgG captured on Protein A, GITR as analyte
The binders listed here are annotated with their koff.
readout kind: koff

>  <binder>
anti-GITR 51B VH3/VL5 humanized antibody (human IgG1, kappa) (antibody, V domains shown) VH: QVQLVQSGAEVKKPGASVKVSCKTTGYRFTGYWIEWVRQPPGKGLEWIGEILPGSGATYYSENFKGKVTITADTSTDTAYMELSSLRSEDTAIYYCARKGGYYAMDYWGQGTLVTVSS VL: EIVLTQSPATLSLSPGERATLSCTASSSVSSSYFHWYQQKPGKAPKLWIYSTSNLESGVPDRFSGSGSGTDYTLTISSLQAEDVATYYCHLYHRSPRTFGGGTKVEIKR

>  <readout kind>
koff

>  <observed value>
0.000456 s⁻¹

$$$$
>  <binder>
anti-GITR 51B VH3/VL1 humanized antibody (human IgG1, kappa) (antibody, V domains shown) VH: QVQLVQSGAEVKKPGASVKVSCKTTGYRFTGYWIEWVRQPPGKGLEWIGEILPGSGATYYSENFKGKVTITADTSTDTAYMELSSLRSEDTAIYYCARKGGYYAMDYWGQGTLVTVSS VL: QIVLTQSPAIMSASLGERVTMSCTASSSVSSSYFHWYQQKPGSAPKLWIYSTSNLASGVPDRFSGSGSGTDYTLTVSSLQAEDVATYYCHLYHRSPRTFGGGTTVDIKR

>  <readout kind>
koff

>  <observed value>
0.000482 s⁻¹

$$$$
>  <binder>
anti-GITR 51B VH0/VL0 chimeric antibody (human IgG1, kappa) (antibody, V domains shown, Chimeric antibody; also called VH0/Vk0; 51B VH0/Vk0) VH: QVQLQQSGAELMKPGASVKLSCKTTGYRFTGYWIEWVKQRPGHGLEWIGEILPGSGATYYSENFKGKATFTADTSSNTAYMQVSSLTTGDSAIYYCARKGGYYAMDYWGQGTSVTVSS VL: QIVLTQSPAIMSASLGERVTMTCTASSSVSSSYFHWYQQKPGSSPKLWIYSTSNLASGVPARFSGSGSGTSYSLTVSSLEAEDAATYYCHLYHRSPRTFGGGTTLDIKR

>  <readout kind>
koff

>  <observed value>
0.000314 s⁻¹

$$$$
>  <binder>
anti-GITR 51B VH4/VL4 humanized antibody (human IgG1, kappa) (antibody, V domains shown) VH: QVQLVQSGAEVKKPGASVKVSCKTTGYRFTGYWINWVRQPPGKGLEWIGEILPGSGATYYSENFKGKVTITADTSTDTAYMELSSLRSEDTAIYYCARKGGYYAMDYWGQGTLVTVSS VL: EIVLTQSPATLSLSPGERATLSCTASSSVSSSYFHWYQQKPGKAPKLWIYSTSNLQSGVPDRFSGSGSGTDYTLTISSLQAEDVATYYCHLYHRSPRTFGGGTKVEIKR

>  <readout kind>
koff

>  <observed value>
0.000488 s⁻¹

$$$$
>  <binder>
anti-GITR 51B VH3/VL4 humanized antibody (human IgG1, kappa) (antibody, V domains shown, also called VH3/Vk4; 51B VH3/Vk4) VH: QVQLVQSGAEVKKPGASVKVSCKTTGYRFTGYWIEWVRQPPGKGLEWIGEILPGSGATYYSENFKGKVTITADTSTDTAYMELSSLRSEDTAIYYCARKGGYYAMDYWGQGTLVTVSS VL: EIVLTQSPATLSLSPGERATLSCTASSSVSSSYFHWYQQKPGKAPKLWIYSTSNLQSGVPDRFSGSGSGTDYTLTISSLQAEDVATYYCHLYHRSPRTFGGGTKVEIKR

>  <readout kind>
koff

>  <observed value>
0.00043 s⁻¹

$$$$
